# experimental_details: modulators of yeast start codon fidelity, primary screen, whole organism, S. cerevisiae, single point, plate reader (AID 602363);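 also: firefly luciferase made from a UUG start codon reports start codon fidelity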
# protocol_conditions: S. cerevisiae UUG-firefly luciferase reporter, luminescence/redox ratio; at 18.7 µM; active compounds read high
Screen size: about 350,000 compounds; about 450 (0.13%) were called active. For the sample, actives were picked, then their nearest neighbours and some compounds at random.
readout: activity score (%)
Unit % implied. Number only.

Prompt: Form field: reported activity score of `O=C(c1cccnc1)N1C[C@H]2[C@@H](c3ccccc31)[C@H](CO)N2C(=O)C1CC1`
Completion: 101

Prompt: Try the compound `CC(C)NC(=O)N(C)C[C@H]1Oc2ccc(NC(=O)CCC(F)(F)F)cc2CC(=O)N([C@@H](C)CO)C[C@@H]1C`
Completion: -4.49

Prompt: Now consider O=C(COc1ccc(Cl)cc1)NCc1nnc(SCC(=O)NCC2CCCO2)o1 (stereo not drawn) and answer again.
Completion: 199

Prompt: Try this compound too: COc1ccc2c(C)cc(SCC(=O)NCC3CCCO3)nc2c1 (stereo not drawn)
Completion: -4.78

Prompt: Now the same for `O=C(c1cccnc1)N1C[C@@H]2[C@H](c3ccccc31)[C@@H](CO)N2C(=O)Nc1ccc(F)cc1`
Completion: 52.2

Prompt: Another: `C[C@H](CO)N1C[C@H](C)[C@H](CN(C)S(=O)(=O)c2cccs2)Oc2ccc(NS(=O)(=O)c3ccc(Cl)cc3)cc2CC1=O`
Completion: 3.99

Prompt: Same read-out for `CCCNC(=O)N1C[C@@H](O)COC[C@H]2O[C@@H](CC(=O)NCCCN3CCOCC3)CC[C@@H]21` ?
Completion: -4.24

Prompt: Same thing, different compound: `C[C@H](O)C#Cc1cnc2c(c1)C(=O)N([C@H](C)CO)C[C@H](C)[C@H](CN(C)C(=O)c1ccc(F)cc1)O2`
Completion: 9.52
